So I've got a bunch of molecules here, and I need their MTECC24 CFHBEC- Amax % values.
- EXPERIMENTAL_SYSTEM: delF508-CFTR (Homo sapiens, UniProt P13569, DEL508-508)
- Construct: functional activity of the CFTR channel (Chloride ion transport) in patient derived primary human bronchial epithelial cells; host or cells: patient-derived primary human bronchial epithelial cells (delF508-CFTR)
- Sequence (P13569 with tags, fused parts or gaps DEL508-508): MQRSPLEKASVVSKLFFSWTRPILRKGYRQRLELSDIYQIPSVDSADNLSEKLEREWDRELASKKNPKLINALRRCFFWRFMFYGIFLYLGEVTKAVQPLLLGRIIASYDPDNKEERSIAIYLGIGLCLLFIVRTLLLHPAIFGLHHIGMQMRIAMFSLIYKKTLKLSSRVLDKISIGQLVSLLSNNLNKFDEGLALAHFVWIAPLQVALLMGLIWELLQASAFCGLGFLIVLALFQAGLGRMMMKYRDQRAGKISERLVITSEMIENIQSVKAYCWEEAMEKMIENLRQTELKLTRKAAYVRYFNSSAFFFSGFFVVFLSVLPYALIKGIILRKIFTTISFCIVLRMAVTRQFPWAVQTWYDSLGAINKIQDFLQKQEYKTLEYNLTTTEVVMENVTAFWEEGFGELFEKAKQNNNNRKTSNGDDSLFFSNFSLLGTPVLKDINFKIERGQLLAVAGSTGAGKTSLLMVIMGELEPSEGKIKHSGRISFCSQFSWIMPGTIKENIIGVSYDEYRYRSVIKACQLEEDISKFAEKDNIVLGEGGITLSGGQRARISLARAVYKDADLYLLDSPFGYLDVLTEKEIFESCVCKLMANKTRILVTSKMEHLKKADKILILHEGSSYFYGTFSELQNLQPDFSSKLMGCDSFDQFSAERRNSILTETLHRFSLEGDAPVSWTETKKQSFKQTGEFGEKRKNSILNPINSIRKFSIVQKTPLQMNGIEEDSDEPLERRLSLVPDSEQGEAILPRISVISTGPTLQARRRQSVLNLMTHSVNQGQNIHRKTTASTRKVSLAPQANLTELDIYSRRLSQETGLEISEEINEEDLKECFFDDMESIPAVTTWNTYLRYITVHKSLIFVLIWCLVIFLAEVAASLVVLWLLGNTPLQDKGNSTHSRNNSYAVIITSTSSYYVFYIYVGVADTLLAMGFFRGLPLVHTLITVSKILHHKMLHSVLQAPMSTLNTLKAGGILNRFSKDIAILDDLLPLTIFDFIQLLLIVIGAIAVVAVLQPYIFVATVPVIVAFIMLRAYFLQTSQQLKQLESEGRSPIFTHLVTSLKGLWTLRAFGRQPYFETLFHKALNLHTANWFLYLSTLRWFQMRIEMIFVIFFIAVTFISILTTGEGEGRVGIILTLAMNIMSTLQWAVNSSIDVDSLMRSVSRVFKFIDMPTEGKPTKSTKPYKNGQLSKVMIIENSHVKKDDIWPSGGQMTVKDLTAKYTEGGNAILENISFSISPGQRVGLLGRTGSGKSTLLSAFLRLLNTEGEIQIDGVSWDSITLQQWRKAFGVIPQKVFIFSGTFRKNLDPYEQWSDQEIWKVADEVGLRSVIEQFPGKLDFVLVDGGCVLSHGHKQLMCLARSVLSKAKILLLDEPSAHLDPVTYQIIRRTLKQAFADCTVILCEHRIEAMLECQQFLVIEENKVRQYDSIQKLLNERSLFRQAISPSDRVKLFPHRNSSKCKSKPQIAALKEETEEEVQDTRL
- EXPERIMENT_DESCRIPTION: Measurement of delF508-CFTR functional activity in primary human bronchial epithelial cells (HBECs) using Multi-Transepithelial Clamp Circuit (MTECC-24) assay
- Assay type: cell-based
- CONDITION_DETAILS: primary CF HBECs; test compound added 24h before assay plus potentiator; relative to reference combination (2 μM corrector + 0.5 μM potentiator)
Please give a number only; it is taken to be in %.

May I ask what MTECC24 CFHBEC- Amax % has been recorded for Cc1ccc(F)cc1-c1nc(NS(=O)(=O)c2cccc(N)n2)ccc1C(F)(F)F ?
78.9

Need MTECC24 CFHBEC- Amax %, item CC1(O)CN(c2cccc(S(=O)(=O)Nc3ccc(C(F)(F)F)c(-c4ccccc4Cl)n3)n2)C1
63.5

Request the reported MTECC24 CFHBEC- Amax % associated with Cc1c(F)cccc1-c1nc(NS(=O)(=O)c2cccc(N3CCN(C4CC4)CC3)n2)ccc1C(F)(F)F
80.5

###

Can you tell me MTECC24 CFHBEC- Amax % for the items I'm about to list?
- EXPERIMENTAL_SYSTEM: delF508-CFTR (Homo sapiens, UniProt P13569, DEL508-508)
- Construct: functional activity of the CFTR channel (Chloride ion transport) in patient derived primary human bronchial epithelial cells; host or cells: patient-derived primary human bronchial epithelial cells (delF508-CFTR)
- EXPERIMENT_DESCRIPTION: Measurement of delF508-CFTR functional activity in primary human bronchial epithelial cells (HBECs) using Multi-Transepithelial Clamp Circuit (MTECC-24) assay
- Type: cell-based
- CONDITION_DETAILS: primary CF HBECs; test compound added 24h before assay plus potentiator; relative to reference combination (2 μM corrector + 0.5 μM potentiator)
Give the number; % is assumed, so skip it.

Lab request: please report MTECC24 CFHBEC- Amax % under test system delF508-CFTR (Homo sapiens, UniProt P13569, DEL508-508) for Cc1ccccc1-c1nc(NS(=O)(=O)c2cccc(N3CCC[C@@H](C(=O)O)C3)n2)ccc1C(F)(F)F
84.0

Record Cc1c(F)cccc1-c1nc(NS(=O)(=O)c2cccc(N3CCCC(C)(C(=O)O)C3)n2)ccc1C(F)(F)F (stereo not shown) : what is its MTECC24 CFHBEC- Amax % with delF508-CFTR (Homo sapiens, UniProt P13569, DEL508-508)?
77.9

Notebook entry, delF508-CFTR (Homo sapiens, UniProt P13569, DEL508-508) assay: MTECC24 CFHBEC- Amax % of Cc1c(F)cccc1-c1nc(NS(=O)(=O)c2cccc(N3CCN(C4CC4)CC3)n2)ccc1Cl = ?
88.7

API: value(readout=MTECC24 CFHBEC- Amax %, system=delF508-CFTR (Homo sapiens, UniProt P13569, DEL508-508)) for record CC1(C(=O)O)CCN(c2cccc(S(=O)(=O)Nc3ccc(C(F)(F)F)c(-c4ccccc4Cl)n3)n2)CC1
59.0

Form field - read-out: MTECC24 CFHBEC- Amax %; system: delF508-CFTR (Homo sapiens, UniProt P13569, DEL508-508); submitted item: COc1ccc(Cl)c(-c2nc(NS(=O)(=O)c3cccc(N4CC(O)C4)n3)ccc2C(F)(F)F)c1
83.5

Quick check: MTECC24 CFHBEC- Amax % on delF508-CFTR (Homo sapiens, UniProt P13569, DEL508-508), item O=S(=O)(Nc1ccc(C(F)(F)F)c(-c2ccc(F)cc2Cl)n1)c1cccc(N2CC(O)C2)n1 ?
87.7

API: value(readout= MTECC24 CFHBEC- Amax %, system= delF508-CFTR (Homo sapiens, UniProt P13569, DEL508-508), query= Cc1ccccc1-c1nc(NS(=O)(=O)c2ccc(C)c(N)n2)ccc1C(F)(F)F )
67.6

Param readout = MTECC24 CFHBEC- Amax %; param system = delF508-CFTR (Homo sapiens, UniProt P13569, DEL508-508); param query = Cc1ccccc1-c1nc(NS(=O)(=O)c2cccc(N3CCN(C(=O)OC(C)(C)C)CC3)n2)ccc1C(F)(F)F ; response: value
88.2

// map Cc1ccc(F)cc1-c1nc(NS(=O)(=O)c2cccc(N3CCC(C(=O)O)C3)n2)ccc1C(F)(F)F (stereo not shown) to recorded MTECC24 CFHBEC- Amax % (system: delF508-CFTR (Homo sapiens, UniProt P13569, DEL508-508))
43.5

MTECC24 CFHBEC- Amax % of Cc1ccc(F)cc1-c1nc(NS(=O)(=O)c2cccc(N3CC(C)(O)C3)n2)ccc1C(F)(F)F on delF508-CFTR (Homo sapiens, UniProt P13569, DEL508-508)?
119.0

Notebook: pull reported MTECC24 CFHBEC- Amax % for delF508-CFTR (Homo sapiens, UniProt P13569, DEL508-508), entry CCCC1(C(=O)O)CCN(c2cccc(S(=O)(=O)Nc3ccc(C(F)(F)F)c(-c4ccccc4CC)n3)n2)CC1
99.7

Identify the measured MTECC24 CFHBEC- Amax % of Cc1ccc(F)cc1-c1nc(NS(=O)(=O)c2cccc(N[C@@H]3CCOC[C@H]3O)n2)ccc1Cl for delF508-CFTR (Homo sapiens, UniProt P13569, DEL508-508).
70.9

Field: MTECC24 CFHBEC- Amax % (delF508-CFTR (Homo sapiens, UniProt P13569, DEL508-508)). Entry: Cc1ccc(F)cc1-c1nc(NS(=O)(=O)c2cccc(N)n2)ccc1Cl
61.0

For the record O=C(O)[C@@H]1CCCN(c2cccc(S(=O)(=O)Nc3ccc(C(F)(F)F)c(-c4ccccc4C4CCC4)n3)n2)C1 , what value of MTECC24 CFHBEC- Amax % is listed for delF508-CFTR (Homo sapiens, UniProt P13569, DEL508-508)?
66.9

Field: MTECC24 CFHBEC- Amax % (delF508-CFTR (Homo sapiens, UniProt P13569, DEL508-508)). Entry: Cc1c(F)cccc1-c1nc(NS(=O)(=O)c2cccc(N)n2)ccc1C(F)(F)F
66.8

Fill in the recorded MTECC24 CFHBEC- Amax % for this compound, with delF508-CFTR (Homo sapiens, UniProt P13569, DEL508-508) as test system: Cc1cccc(C)c1-c1nc(NS(=O)(=O)c2cccc(N3CCC(C(=O)O)CC3)n2)ccc1Cl
57.0

###

- EXPERIMENTAL_SYSTEM: delF508-CFTR (Homo sapiens, UniProt P13569, DEL508-508)
- Construct: functional activity of the CFTR channel (Chloride ion transport) in patient derived primary human bronchial epithelial cells; host or cells: patient-derived primary human bronchial epithelial cells (delF508-CFTR)
- EXPERIMENT_DESCRIPTION: Measurement of delF508-CFTR functional activity in primary human bronchial epithelial cells (HBECs) using Multi-Transepithelial Clamp Circuit (MTECC-24) assay
- Assay type: cell-based
- CONDITION_DETAILS: primary CF HBECs; test compound added 24h before assay plus potentiator; relative to reference combination (2 μM corrector + 0.5 μM potentiator)
Counter-ions that a name gives are not always drawn.
METRIC_NAME: MTECC24 CFHBEC- Amax % (%)
Respond with the bare value in %.

State the recorded MTECC24 CFHBEC- Amax % for this entry: Cc1ccccc1-c1nc(NS(=O)(=O)c2cccc(N[C@@H]3CCOC[C@@H]3O)n2)ccc1C(F)(F)F (racemic) [Example 275]
77.9

MTECC24 CFHBEC- Amax % for Cc1ccc(F)cc1-c1nc(NS(=O)(=O)c2cccc(N3CCC(C)(C(=O)O)CC3)n2)ccc1C(F)(F)F ?
81.2

GET /values?readout=MTECC24 CFHBEC- Amax %&item= CN[C@H]1CCN(c2cccc(S(=O)(=O)Nc3ccc(C(F)(F)F)c(-c4ccccc4C)n3)n2)C1 [Example 122, Hydrochloride]
81.8

Using the record for Cc1ccc(F)cc1-c1nc(NS(=O)(=O)c2cccc(N3CC(O)C3)n2)ccc1C(F)(F)F , report its MTECC24 CFHBEC- Amax %.
58.6

For the molecule Cc1ccc(C#N)cc1-c1nc(NS(=O)(=O)c2cccc(N3CC(C)(O)C3)n2)ccc1Cl , what MTECC24 CFHBEC- Amax % is on record?
81.3

What measured MTECC24 CFHBEC- Amax % goes with CCOC(=O)C1(C)CCN(c2cccc(S(=O)(=O)Nc3ccc(Cl)c(-c4c(C)cccc4C)n3)n2)CC1 ?
79.6

Which MTECC24 CFHBEC- Amax % reading was recorded for the molecule Cc1ccc(C#N)cc1-c1nc(NS(=O)(=O)c2cccc(N3CCNCC3)n2)ccc1C(F)(F)F ?
61.7

# MTECC24 CFHBEC- Amax % lookup, item Cc1ccccc1-c1nc(NS(=O)(=O)c2cccc(N3CC(C)(O)C3)n2)ccc1Br
78.0
